# maps each entry to its Kd
- target.system: Rvs167 SH3 domain (GST-fused) (Saccharomyces cerevisiae, UniProt P39743)
- Construct: Experiments were carried out on sensor chips with GST-fused SH3 domains and GST as a control; made in house
- Sequence (P39743 421-482 limits assumed): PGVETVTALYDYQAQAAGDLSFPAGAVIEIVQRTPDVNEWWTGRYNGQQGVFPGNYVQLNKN
- run.description: Surface plasmon resonance (BIAcoreX) dissociation constants of peptides, Rvs167 SH3 domain
- Type: binding
- experimental.setup: Figure 4A; SPR BIAcoreX, GST-SH3 coupled to CM5 chip, GST control; peptides in 10 mM HEPES, 150 mM NaCl, 3.4 mM EDTA, 0.005% P20, pH 7.4, 25°C; steady-state model; read-out: dissociation constant, SH3 DOMAINS RVS167
- Procedure: Figure 4 Measurement of Dissociation Constants and Correlation with SPOT Intensities (A) Dissociation constants were measured with a BIAcoreX instrument as described in the Materials and Methods. The experiments with the Abp1 SH3 domain were carried out in triplicate. […] Surface plasmon resonance measurements were carried out with a BIAcoreX instrument (BIAcore, Uppsala, Sweden). […] Dissociation constant values were evaluated by applying the steady-state model using BIAcore evalution 3.1 software.
No end group written: not given here.
Give the value, in units of µM, as a plain number.

Please review the entries below; each comes with its answer.
sequence.code | target.system | unit.name | Kd
GTTNRGPPPLPPRA [ACF2 GTTNRGPPPLPPRA] | Rvs167 SH3 domain (GST-fused) (Saccharomyces cerevisiae, UniProt P39743) | µM | 6.3
RAVPILPPRNNVEP [YBR108W RAVPILPPRNNVEP] | Rvs167 SH3 domain (GST-fused) (Saccharomyces cerevisiae, UniProt P39743) | µM | 39
NIQPDLPPRKIMIP [YBR239C NIQPDLPPRKIMIP] | Rvs167 SH3 domain (GST-fused) (Saccharomyces cerevisiae, UniProt P39743) | µM | 39
SSPPPLPTRRDHIK [YPR171 SSPPPLPTRRDHIK] | Rvs167 SH3 domain (GST-fused) (Saccharomyces cerevisiae, UniProt P39743) | µM | 16
NAPERAVPILPPRN [YBR108W NAPERAVPILPPRN] | Rvs167 SH3 domain (GST-fused) (Saccharomyces cerevisiae, UniProt P39743) | µM | 56

Query string: So what's the measured Kd for this one? RPKRRAPPPVPKKP [YIR003 RPKRRAPPPVPKKP]
Result string: 13

Query string: So what's the measured Kd for this one? SGPPLLPPRNTMKN [YJR083C SGPPLLPPRNTMKN]
Result string: 16

Query string: So what's the measured Kd for this one? PQQNRPLPQLPNRN [LAS17 PQQNRPLPQLPNRN]
Result string: 32

Query string: So what's the measured Kd for this one? STPPTLPPRRIEDP [YMR192 STPPTLPPRRIEDP]
Result string: 28

Query string: So what's the measured Kd for this one? RPLPQLPNRNNRPV [LAS17 RPLPQLPNRNNRPV]
Result string: 30

---

- Tested on: Myo5 SH3 domain
- run.description: SPOT analysis of cellulose-bound peptides (WISE), Myo5 SH3 domain (Dataset S4)
- Format: binding, Saccharomyces cerevisiae
- experimental.setup: SPOT analysis of membrane-synthesized peptides probed with Myo5 SH3 domain; normalized value
readout.label: The normalized value in BLU units (SPOT analysis, Myo5 SH3) (BLU)
Give the value, in units of BLU, as a plain number.

Please review the entries below; each comes with its answer.
sequence.code | target.system | value
KNPTKSPPPPPSPS | Myo5 SH3 domain | 27847.4
SERRKALPKEPKKL | Myo5 SH3 domain | 200.0
NTLLKVVPQEPTAV | Myo5 SH3 domain | 154.4

Next, consider the following sequence.
Query string: So what's the measured The normalized value in BLU units (SPOT analysis, Myo5 SH3) for this one? `LNRQKNYPDAPAIF`
Result string: 86.4

Values from paper PMC314469
